B1: TPR 5TU (parent)
chain: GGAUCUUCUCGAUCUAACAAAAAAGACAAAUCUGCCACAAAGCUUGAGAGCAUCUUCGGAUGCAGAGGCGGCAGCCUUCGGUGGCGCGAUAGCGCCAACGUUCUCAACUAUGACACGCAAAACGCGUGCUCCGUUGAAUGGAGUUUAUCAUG

Variants of: B1
Assay: polymerase ribozyme fitness, log enrichment relative to wild type (log ratio); higher = more active; in vitro selection for triplet polymerase activity
Variants at the floor of the assay were thinned out.
The variants listed here are annotated with their polymerase ribozyme fitness (log ratio).

Past entries and their recorded results:
G48A A52U U56A U78A A98U U139C
≤ -4.2
A16U U33A G42A C93U G140A
≤ -4.2
C10U U15C A29U C95U
≤ -4.2
G46U C72A U90G A97G G100A U104A A107G G124C
≤ -4.2
A26C C38G G68C C76U G84U U139G
≤ -4.2
C35G G62A G68A C69G G71C C72A A73G G74C A91C C114U C132U
≤ -4.2
A49C U55A G143C
≤ -4.2
A47G C87A G126A
≤ -4.2

Ask: Please give measured polymerase ribozyme fitness (log ratio) of the following entry: U7C A20C A89G C96A U111C C118U
Result: ≤ -4.2

Ask: Item A16U C51A A73G C85U A122C : provide polymerase ribozyme fitness (log ratio)
Result: ≤ -4.2

Ask: State its polymerase ribozyme fitness (log ratio): G59C A98U C125A G140C
Result: ≤ -4.2
